# Test Protocol: Oral dog 4-week toxicity study with toxicokinetics
# Type: in vivo, beagle dogs
# Cond: beagle, in vivo, po; dog Day 1, 100 mg/kg/day, Male; read-out: AUClast
Experimental Endpoint: AUC(0-t) (ng·h/mL)
Expressed in ng·h/mL, but write only the number.

Problem: Requested field: AUC(0-t). Item: C=CC(=O)Nc1cc(Nc2nccc(-n3ccc4cccnc43)n2)c(OC)cc1N(C)CCN(C)C [Compound 1]
Solution: 5190

----------
# System Tested: EGFR(L747-S752del, P753S) (Homo sapiens, UniProt P00533, DEL747-752/P753S)
# Sequence (P00533 with tags, fused parts or gaps DEL747-752/P753S): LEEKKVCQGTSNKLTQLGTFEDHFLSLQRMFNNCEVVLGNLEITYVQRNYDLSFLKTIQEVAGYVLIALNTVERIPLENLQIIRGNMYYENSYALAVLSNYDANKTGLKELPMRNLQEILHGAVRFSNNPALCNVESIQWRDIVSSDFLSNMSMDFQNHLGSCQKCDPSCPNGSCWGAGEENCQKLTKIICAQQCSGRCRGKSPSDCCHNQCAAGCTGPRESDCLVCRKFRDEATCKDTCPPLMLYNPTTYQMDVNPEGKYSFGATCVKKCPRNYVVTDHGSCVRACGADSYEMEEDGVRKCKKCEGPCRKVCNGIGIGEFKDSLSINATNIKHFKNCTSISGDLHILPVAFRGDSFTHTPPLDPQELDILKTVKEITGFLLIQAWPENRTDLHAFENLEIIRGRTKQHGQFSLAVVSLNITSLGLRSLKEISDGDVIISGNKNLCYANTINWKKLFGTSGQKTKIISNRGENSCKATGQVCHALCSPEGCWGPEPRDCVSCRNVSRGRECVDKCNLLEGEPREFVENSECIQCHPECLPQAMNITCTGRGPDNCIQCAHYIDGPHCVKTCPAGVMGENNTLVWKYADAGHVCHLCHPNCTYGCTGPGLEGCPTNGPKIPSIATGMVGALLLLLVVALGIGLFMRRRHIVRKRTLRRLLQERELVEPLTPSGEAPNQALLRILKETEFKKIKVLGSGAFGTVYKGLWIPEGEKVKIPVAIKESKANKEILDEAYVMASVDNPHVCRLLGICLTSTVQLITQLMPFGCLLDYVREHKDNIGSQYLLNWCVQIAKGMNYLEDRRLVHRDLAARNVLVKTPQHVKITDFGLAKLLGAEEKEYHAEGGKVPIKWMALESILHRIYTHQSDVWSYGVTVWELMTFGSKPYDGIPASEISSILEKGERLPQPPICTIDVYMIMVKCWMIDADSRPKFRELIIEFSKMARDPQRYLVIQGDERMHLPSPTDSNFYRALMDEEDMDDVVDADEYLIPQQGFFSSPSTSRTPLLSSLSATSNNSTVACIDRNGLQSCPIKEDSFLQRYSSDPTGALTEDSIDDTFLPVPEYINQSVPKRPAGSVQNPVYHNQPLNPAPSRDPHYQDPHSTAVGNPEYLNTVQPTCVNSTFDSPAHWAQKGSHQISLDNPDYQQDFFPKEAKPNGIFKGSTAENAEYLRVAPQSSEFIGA
# Test Protocol: Kinase binding constant (Kd)
Experimental Endpoint: Kd (nM)
Expressed in nM, but write only the number.

Problem: Requested field: Kd. Item: `C=CC(=O)Nc1cc(Nc2nccc(-n3ccc4cccnc43)n2)c(OC)cc1N(C)CCN(C)C`
Solution: 3.1
